Molecular target: T1, Human Clec4E (human, UniProt Q9ULY5 1-219)
T1 construct: also called hClec4E
T1 sequence: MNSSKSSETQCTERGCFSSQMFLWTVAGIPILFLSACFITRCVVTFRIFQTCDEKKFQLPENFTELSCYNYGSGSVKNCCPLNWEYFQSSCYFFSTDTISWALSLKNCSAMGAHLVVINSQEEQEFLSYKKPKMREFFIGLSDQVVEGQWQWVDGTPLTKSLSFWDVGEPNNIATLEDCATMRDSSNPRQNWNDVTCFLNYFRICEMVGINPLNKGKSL
Test: flow, Jurkat, 100 nM Ab
readout.kind: MFI normalized to WT
Give bare numbers.

>>> value_reported("KW1.3.12 (antibody, human IgG1, V domains shown) VH: EVQLVESGGGLVQPGGSLRLSCAASGFTFSSYAMSWVRQAPGKGLEWVSTISGSGGSTYYADSVKGRFTISRDNSRNTLYLQMNSLRAEDTAVYYCARGGLIPSGFDYWGQGTLVTVSS VL: DIQMTQSPSSLSASVGDRVTITCRASQSISSYLNWYQQKPGKAPKLLIYAASSLLSGVPSRFSGSGSGTDFTLTISSLQPEDFATYYCQQTYSAPLTFGQGTKVEIK")
1.17
>>> value_reported("KW7.3.7 (antibody, V domains shown) VH: EVQLVESGGGLVQPGGSLRLSCAASGFTFSSYAMSWVRQAPGKGLEWVSATSGSGGSTYYADSAKGRFTISRDNSKNTLYLQMNSLRAEDTAVYYCARGGYLPDAFDYWGRGTLVTVSS VL: DIQMTQSPSSLSASVGDRVTITCWASQSISSYLNWYQQEPGKAPKLLIYAASSLQSGVPSRFSGSGSGTDFTLTISSLQPEDFATYYCQQTYSTPLTFGQGTKVEIK")
0.88

Query: Give the measured MFI normalized to WT of KW9.3.3 (antibody, V domains shown) VH: EVQLVESGGGLVQPGGSLRLSCAASGFTFSSYAMSWVRQAPGKGLEWVSAISGSGGRTYYADSVKGRFTISRDNSKNTLYLQMNSLRAEDTAMYYCARGPGYMYLYGDSFFEYWGQGTLVTVSS VL: DIQMAQSPSSLSASVGDRVTITCRASQGISSYLNWYQQKPGKAPKLLIYAASSLQSGVPSRFSGSGYGTDFTLTISSLQPEDFATYYCQQSYSTPLTFGQGTKVEIK .
Reply: 0.85
